- Test system: HeLa MZ
- EXPERIMENTAL_PROTOCOL: filipin (cholesterol) integrated intensity within LBPA endosomes, Z-score; higher = more cholesterol in LBPA endosomes
- TEST_CONTEXT: compound concentration in added solution (µM; 5 µl added to 20 µl cells): 10; 18 h
Where a name gives a salt, the structure may show the parent alone.
TEST_READOUT: filipin (z-score)

1. N=C(N=C(N)N)N1CCOCC1 [Moroxidine hydrochloride] ... -0.669
2. COc1ccccc1N1CCN(CC(O)COc2cccc3ccccc23)CC1 (stereo not drawn) [Naftopidil dihydrochloride] ... 0.742
3. CC(=O)OCC(=O)[C@@]1(O)CC[C@H]2[C@@H]3CCC4=CC(=O)C=C[C@]4(C)[C@@]3(F)[C@@H](O)C[C@@]21C [Isoflupredone acetate] ... -0.357
4. Nc1nc(=O)[nH]cc1F ... -0.623
5. CS(=O)(=O)c1ccc([C@@H](O)[C@@H](CF)NC(=O)C(Cl)Cl)cc1 ... -0.651
6. CCC(C)n1ncn(-c2ccc(N3CCN(c4ccc(OCC5COC(Cn6cncn6)(c6ccc(Cl)cc6Cl)O5)cc4)CC3)cc2)c1=O (stereo not drawn) ... 1.87
7. NC(=O)NC1NC(=O)NC1=O (stereo not drawn) ... -0.604
8. COc1cc(-c2ccc(=O)[nH]n2)ccc1OC(F)F ... -0.332
